I'd appreciate it if you could supply pKd values for the items below.
Target: human TYK2 (JH2domain-pseudokinase) (Homo sapiens (Human))
Assay: TYK2 JH2 Domain Binding Assay (KINOMEscan)
Conditions: Tyk2 JH2 Domain Binding Assay; read-out: Kd
pKd: −log10 of the molar value.

What value of measured pKd is listed for CNc1nn(-c2cccc(-c3ncn(C)n3)c2OC)c2cc(NC(=O)C3CC3)ncc12 ? 5.00 to 5.15

Same question for CNc1nn(-c2cccc(-c3nnn(C)n3)c2OC)c2cc(NC(=O)C3CC3)ncc12 please. 5.00 to 5.15

----------
Consider the following compounds; for each one, report its pKd.
Biological target: human TYK2 (JH2domain-pseudokinase) (Homo sapiens (Human), UniProt P29597)
Sequence (P29597 556-888): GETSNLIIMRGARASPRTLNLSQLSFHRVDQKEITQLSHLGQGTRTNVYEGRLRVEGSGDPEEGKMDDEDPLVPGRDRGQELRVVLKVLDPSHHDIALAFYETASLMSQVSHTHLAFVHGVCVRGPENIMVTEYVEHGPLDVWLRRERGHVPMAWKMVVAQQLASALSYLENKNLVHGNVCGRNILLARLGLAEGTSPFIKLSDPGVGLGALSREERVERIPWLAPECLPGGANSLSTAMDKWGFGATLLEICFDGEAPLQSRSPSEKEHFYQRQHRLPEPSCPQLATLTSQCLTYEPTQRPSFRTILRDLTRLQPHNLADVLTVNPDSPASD
Assay: TYK2 JH2 Domain Binding Assay (KINOMEscan)
Conditions: Table 4, JH2 binding assay; read-out: JH2 Kd
pKd: −log10 of the molar value.

Can you share its pKd? I mean this compound: COc1c(Cl)cccc1Nc1cc(Nc2ccc(N3CC[C@H](OC)C3)c(C#N)n2)nc2[nH]n(C)c(=O)c12 9.30 to 10.00

// same read-out, input: COc1c(F)cccc1Nc1cc(Nc2ccc(C(F)F)c(C#N)n2)nc2[nH]n(C)c(=O)c12 < 8.00

Record: COc1c(Nc2cc(NC(=O)C3CC3)nc3[nH]n(C)c(=O)c23)cccc1-c1ccn(C)n1 > 10.00

Another compound: COc1c(F)cccc1Nc1cc(Nc2cc(C)c(F)cn2)nc2[nH]n(C)c(=O)c12 8.00 to 9.00

Same for Cc1ccnc(Nc2cc(Nc3ccccc3S(C)(=O)=O)c3c(=O)n(C)[nH]c3n2)c1 9.00 to 9.30

Now give it for COc1c(Nc2cc(NC(=O)C3CC3)nc3[nH]n(C)c(=O)c23)cccc1-c1noc(C)n1 too. 9.30 to 10.00

How about this compound: COc1c(Nc2cc(Nc3cc(C)nc(C)n3)nc3[nH]n(C)c(=O)c23)cccc1-c1ncn(C)n1 9.00 to 9.30

COc1c(F)cccc1Nc1cc(Nc2ccn(C)n2)nc2[nH]n(C)c(=O)c12 ? 8.00 to 9.00

Same again, this time with COc1c(F)cccc1Nc1cc(Nc2cccc(C3CC3)n2)nc2[nH]n(C)c(=O)c12 8.00 to 9.00

Repeat for the following compound: Cn1[nH]c2nc(NC(=O)C3CC3)cc(Nc3ccc(C(=O)N4CCCC4)cc3OC(F)F)c2c1=O < 8.00

# repeat for COc1c(Nc2cc(Nc3ccc(C)nn3)nc3[nH]n(C)c(=O)c23)cccc1-c1ccn(C)n1 9.00 to 9.30

Try this compound too: COc1c(Nc2cc(Nc3cc(C)c(F)cn3)nc3[nH]n(C)c(=O)c23)cccc1-c1cnc[nH]1 9.30 to 10.00

Same question, Cn1[nH]c2nc(NC(=O)C3CC3)cc(Nc3ccc(C4CC4)cc3S(C)(=O)=O)c2c1=O this time > 10.00

Another compound to check: CN(c1cc(C(F)(F)F)ccc1Nc1cc(NC(=O)C2CC2)nc2[nH]n(C)c(=O)c12)S(C)(=O)=O 9.30 to 10.00

What do we get for COc1c(Nc2cc(Nc3ccc(N4CCCC4)cn3)nc3[nH]n(C)c(=O)c23)cccc1-c1nnn(C)n1 ? < 8.00
